Tested on: NCI-H1944
experiment notes: normalised cell viability (NPI; 0 = phenylarsine oxide control, 1 = DMSO control) (fraction of DMSO control); higher = more viable cells (less compound toxicity)
test context: glucocorticoid arm: hydrocortisone 2.75 uM pre-treated 2 days and continued; compound 5 µM; 6 days
Structures can show the parent of a compound that is named as a salt. In all, about 1,900 compounds were measured (“normalised cell viability (NPI; 0 = phenylarsine oxide control, 1 = DMSO control)”: median about 1, lowest 2% from about 0.039 on). Shown is part of a subset that was picked to be rich in the lowest values.

molecule | system | normalised cell viability
Cc1ccccc1-n1c(Cn2cnc3c(N)ncnc32)nc2cccc(C)c2c1=O | NCI-H1944 | 1.02
O=c1[nH]c2ccc(Cl)cc2c(N[C@@H]2CN3CCC2CC3)c1-c1nc2ccccc2[nH]1 | NCI-H1944 | 0.0576
C=CCN1CC[C@]23c4c5ccc(O)c4O[C@H]2/C(=N/N=C2\CC[C@@]4(O)[C@H]6Cc7ccc(O)c8c7[C@@]4(CCN6CC=C)[C@H]2O8)CC[C@@]3(O)[C@H]1C5 [Naloxonazine dihydrochloride] | NCI-H1944 | 1.03
CN[C@@H]1C[C@H]2O[C@@](C)([C@@H]1OC)n1c3ccccc3c3c4c(c5c6ccccc6n2c5c31)C(=O)NC4 [Staurosporine] | NCI-H1944 | 0.0923
C[C@H]1OC[C@@H](C[N+](C)(C)C)O1 [(+)-cis-Dioxolane] | NCI-H1944 | 1.04
CCc1c(C(=O)OC)ncc2[nH]c3cc(OC)c(OC)cc3c12 [Methyl 6,7-dimethoxy-4-ethyl-beta-carboline-3-carboxylate] | NCI-H1944 | 1.03
C=C(C)[C@H]1Cc2c(ccc3c2O[C@@H]2COc4cc(OC)c(OC)cc4[C@@H]2C3=O)O1 [Rotenone] | NCI-H1944 | 0.685

* * *

In this section we review reported normalised cell viability values for a set of compounds.
Tested on: NCI-H1944;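 further: CTB read-out in 384-well plates, triplicate wells, NPI normalised per plate against 1 µM phenylarsine oxide (0) and 0.1% DMSO (1) controls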
experiment notes: normalised cell viability (NPI; 0 = phenylarsine oxide control, 1 = DMSO control) (fraction of DMSO control); NCI-H1944 is a non-small cell lung cancer line; higher = more viable cells (less compound toxicity)
test context: glucocorticoid arm: hydrocortisone 2.75 uM pre-treated 2 days and continued; compound 5 µM; 6 days
Structures can show the parent of a compound that is named as a salt. Over roughly 1,900 compounds, “normalised cell viability (NPI; 0 = phenylarsine oxide control, 1 = DMSO control)” has its median near 1; the lowest 2% begin near 0.039. Only a selection was taken, and the lowest values are over-represented in it overall.

compound | normalised cell viability
CN1CC[C@@]2(C)c3cc(O)ccc3N(C)C12 (single isomer, unassigned; (-)) [(-)-Eseroline fumarate] | 0.971
CC[C@H]1CN2CCc3cc(OC)c(OC)cc3[C@@H]2C[C@@H]1C[C@H]1NCCc2cc(OC)c(OC)cc21 [Emetine dihydrochloride hydrate] | 0.165
CC(N)C(O)c1ccc(O)c(O)c1 (single isomer, unassigned; (-)) [(-)-alpha-Methylnorepinephrine] | 0.958
N[C@H](C(=O)O)c1cc(O)no1 (racemic) [(±)-Ibotenic acid] | 1.04
COc1ccc2c3c1O[C@H]1C(=O)CC[C@@]4(O)C(C2)N(CC2CC2)CCC314 (stereo partly specified) [3-Methoxynaltrexone hydrochloride] | 1.02
CCCN1CC[C@@H]2c3cc(O)ccc3CC[C@@H]21 (racemic) [cis(+/-)-8-OH-PBZI hydrobromide] | 1.02

Source: the supplement of paper PMC8285479
